Reference source for all entries: the supplement of paper PMC10307832

test system: NCI-H358; assay: relative viability (nuclei count vs DMSO), 5 days (fraction); higher = more cells survive; details: first compound 0.01 µM
READOUT TYPE: relative viability
Could you keep your reply to the number by itself?

Recorded relative viability, per entry:
| MOLECULE | MEASURED ON | VALUE |
| --- | --- | --- |
| CC(C)Oc1cc(Nc2nc(N[C@@H](C)c3ccc(F)cn3)ncc2Cl)n[nH]1 [AZ23] + O=C(CCCCCCC(=O)Nc1ccccc1)NO [Vorinostat] (partner 1 µM) | NCI-H358 | 0.631 |
| CC(C)Oc1cc(Nc2nc(N[C@@H](C)c3ccc(F)cn3)ncc2Cl)n[nH]1 [AZ23] + CC(=O)c1c(C)c2cnc(Nc3ccc(N4CCNCC4)cn3)nc2n(C2CCCC2)c1=O [Palbociclib] (partner 0.5 µM) | NCI-H358 | 0.129 |

Turning to the following molecule.
Lab book: relative viability of CC(C)Oc1cc(Nc2nc(N[C@@H](C)c3ccc(F)cn3)ncc2Cl)n[nH]1 [AZ23] + C[C@]1(O)C[C@@H](c2nc(-c3ccc4ccc(-c5ccccc5)nc4c3)c3c(N)nccn32)C1 [Linsitinib] (partner 1 µM) noted as 0.742

----------
tested on: SK-MES-1; assay: relative viability (nuclei count vs DMSO), 5 days (fraction); higher = more cells survive; settings: first compound 0.3162 µM
READOUT TYPE: relative viability

| COMPOUND | MEASURED ON | relative viability |
| --- | --- | --- |
| CC(C)Oc1cc(Nc2nc(N[C@@H](C)c3ccc(F)cn3)ncc2Cl)n[nH]1 [AZ23] + CC(=O)c1c(C)c2cnc(Nc3ccc(N4CCNCC4)cn3)nc2n(C2CCCC2)c1=O [Palbociclib] (partner 0.5 µM) | SK-MES-1 | 0.328 |
| CC(C)Oc1cc(Nc2nc(N[C@@H](C)c3ccc(F)cn3)ncc2Cl)n[nH]1 [AZ23] + Nc1ncn([C@H]2C[C@H](O)[C@@H](CO)O2)c(=O)n1 [Decitabine] (partner 2 µM) | SK-MES-1 | 0.357 |
| CC(C)Oc1cc(Nc2nc(N[C@@H](C)c3ccc(F)cn3)ncc2Cl)n[nH]1 [AZ23] + Nc1nc2[nH]cc(CCc3ccc(C(=O)N[C@@H](CCC(=O)O)C(=O)O)cc3)c2c(=O)[nH]1 [Pemetrexed] (partner 0.2 µM) | SK-MES-1 | 1.03 |

Lab book: relative viability of CC(C)Oc1cc(Nc2nc(N[C@@H](C)c3ccc(F)cn3)ncc2Cl)n[nH]1 [AZ23] + COc1cccc2cc(-c3nc([C@H]4CC[C@H](C(=O)O)CC4)n4ncnc(N)c34)[nH]c12 [OSI-027] (partner 0.5 µM) noted as 0.745

Lab book: relative viability of CC(C)Oc1cc(Nc2nc(N[C@@H](C)c3ccc(F)cn3)ncc2Cl)n[nH]1 [AZ23] + C[C@@H](Oc1cc(-c2cnn(C3CCNCC3)c2)cnc1N)c1c(Cl)ccc(F)c1Cl [Crizotinib] (partner 1 µM) noted as 0.938

Lab book: relative viability of CC(C)Oc1cc(Nc2nc(N[C@@H](C)c3ccc(F)cn3)ncc2Cl)n[nH]1 [AZ23] + CC1(C)CCC(c2ccc(Cl)cc2)=C(CN2CCN(c3ccc(C(=O)NS(=O)(=O)c4ccc(N[C@H](CCN5CCOCC5)CSc5ccccc5)c(S(=O)(=O)C(F)(F)F)c4)cc3)CC2)C1 [Navitoclax] (partner 0.5 µM) noted as 1.33

Lab book: relative viability of CC(C)Oc1cc(Nc2nc(N[C@@H](C)c3ccc(F)cn3)ncc2Cl)n[nH]1 [AZ23] + Cc1nc(Nc2ncc(C(=O)Nc3c(C)cccc3Cl)s2)cc(N2CCN(CCO)CC2)n1 [Dasatinib] (partner 0.075 µM) noted as 0.288

Lab book: relative viability of CC(C)Oc1cc(Nc2nc(N[C@@H](C)c3ccc(F)cn3)ncc2Cl)n[nH]1 [AZ23] + CS(=O)(=O)N1CCN(Cc2cc3nc(-c4cccc5[nH]ncc45)nc(N4CCOCC4)c3s2)CC1 [Pictilisib] (partner 1 µM) noted as 0.387
